Molecular target: Corticotropin-releasing factor receptor 1 (Homo sapiens, UniProt P34998)
Sequence (P34998 whole entry): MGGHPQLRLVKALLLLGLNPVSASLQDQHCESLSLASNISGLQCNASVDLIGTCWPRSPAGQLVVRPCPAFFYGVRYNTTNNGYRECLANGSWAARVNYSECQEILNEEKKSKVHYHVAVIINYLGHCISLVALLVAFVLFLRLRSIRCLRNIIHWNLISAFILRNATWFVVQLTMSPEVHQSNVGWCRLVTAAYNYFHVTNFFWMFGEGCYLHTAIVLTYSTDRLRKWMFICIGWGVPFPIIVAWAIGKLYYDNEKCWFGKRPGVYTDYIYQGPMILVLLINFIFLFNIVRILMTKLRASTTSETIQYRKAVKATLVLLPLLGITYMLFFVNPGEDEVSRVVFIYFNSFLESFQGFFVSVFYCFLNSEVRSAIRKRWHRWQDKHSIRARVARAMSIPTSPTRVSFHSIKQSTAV
Experiment: Displacement of [125I]Tyr-o-CRF from CRF1 receptor in IMR32 cells
Value kind: pKi
Recall that pKi is obtained by taking minus log10 of the concentration measured in molar.

The cases that follow already have their pKi on record.
CCO[C@H]1Cc2ccccc2[C@H]1Nc1nc(CC)c(Oc2cc(C)ccn2)nc1CC : 7.46
CCCN(CCC)c1nc(CC)c(Oc2cc(C)ccn2)nc1CC : 6.15
CCOCC(Nc1nc(CC)c(Oc2cc(C)ccn2)nc1CC)c1ccccc1 (centres undefined) : 6.42

// below: pKi requested for another molecule
Problem: Which pKi is reported for this molecule? CCCO[C@H]1Cc2ccccc2[C@H]1Nc1nc(CC)c(Oc2cc(C)ccn2)nc1CC
Solution: 7.52
